Assign pKd to each entry below.
system name: T1, M2 muscarinic acetylcholine receptor (Rattus norvegicus, UniProt P10980)
T1 chain: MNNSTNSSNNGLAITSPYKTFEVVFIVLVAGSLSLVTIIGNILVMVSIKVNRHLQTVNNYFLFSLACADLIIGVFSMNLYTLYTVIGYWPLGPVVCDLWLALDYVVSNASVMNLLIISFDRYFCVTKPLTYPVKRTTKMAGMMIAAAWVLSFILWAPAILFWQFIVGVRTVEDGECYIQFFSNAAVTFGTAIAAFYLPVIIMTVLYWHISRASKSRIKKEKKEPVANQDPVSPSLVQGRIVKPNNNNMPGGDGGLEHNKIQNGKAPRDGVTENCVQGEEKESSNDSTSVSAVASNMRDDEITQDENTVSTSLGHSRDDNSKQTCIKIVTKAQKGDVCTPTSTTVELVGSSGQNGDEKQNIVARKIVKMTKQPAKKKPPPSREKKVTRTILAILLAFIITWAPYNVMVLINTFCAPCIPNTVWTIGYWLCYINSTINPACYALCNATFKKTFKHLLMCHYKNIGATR
assay explanation: radioligand binding (Scatchard)
// pKd is dimensionless: -log10 of concentration (M)

Ask: Endpoint output: pKd of SSMKLSFRARGYGFRGPGPQL (AF-DX116 50 nM) . Value?
Result: 7.34

Ask: Do the same for SSMKLSFRARGYGFRGPGPQL please
Result: 7.73

Values compiled from paper PMC4645123.
